Measured hS1P1 B-arrestin2 SPAN of individual entries
# system: human sphingosine-1-phosphate receptor 1 (S1P1) (Homo sapiens (Human))
# Sequence (P21453 whole entry, looked up): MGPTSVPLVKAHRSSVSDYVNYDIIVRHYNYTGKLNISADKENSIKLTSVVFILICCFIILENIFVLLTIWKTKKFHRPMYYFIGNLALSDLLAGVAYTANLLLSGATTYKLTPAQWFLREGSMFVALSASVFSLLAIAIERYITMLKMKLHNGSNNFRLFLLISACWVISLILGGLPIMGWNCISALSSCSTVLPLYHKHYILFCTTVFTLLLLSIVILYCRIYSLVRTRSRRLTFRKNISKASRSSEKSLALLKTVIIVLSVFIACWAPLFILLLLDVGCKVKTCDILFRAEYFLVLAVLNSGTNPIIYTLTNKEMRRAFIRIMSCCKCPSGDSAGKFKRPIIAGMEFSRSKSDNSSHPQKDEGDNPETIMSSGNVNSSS
# Sequence (P32121 whole entry partner, looked up): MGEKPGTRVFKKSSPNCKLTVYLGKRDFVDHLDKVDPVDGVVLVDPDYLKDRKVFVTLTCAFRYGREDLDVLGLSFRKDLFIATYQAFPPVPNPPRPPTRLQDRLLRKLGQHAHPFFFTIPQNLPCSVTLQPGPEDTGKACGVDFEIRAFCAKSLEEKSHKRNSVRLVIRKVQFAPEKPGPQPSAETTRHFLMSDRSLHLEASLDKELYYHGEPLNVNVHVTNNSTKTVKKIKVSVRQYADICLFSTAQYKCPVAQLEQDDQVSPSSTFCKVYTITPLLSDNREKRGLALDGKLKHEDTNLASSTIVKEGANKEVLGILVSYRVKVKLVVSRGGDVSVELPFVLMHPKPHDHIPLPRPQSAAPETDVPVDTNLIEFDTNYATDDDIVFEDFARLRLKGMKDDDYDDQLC
# test method notes: β-Arrestin2 recruitment assay (PathHunter), S1P1 CHO-K1 cells
# Assay type: cell-based
# assay setup: efficacy (SPAN) normalized to fingolimod

[[record]]
smiles_code = "FC(F)(F)Oc1cccc(-c2nc(-c3ccc4c(c3)nnn4C3CCCC3)no2)c1"
system = "human sphingosine-1-phosphate receptor 1 (S1P1) (Homo sapiens (Human))"
test_value = "<75"

[[record]]
smiles_code = "CCOP(=O)(Cc1ccc(-c2noc(-c3ccc4c(c3)nnn4C(C)C)n2)cc1)OCC"
system = "human sphingosine-1-phosphate receptor 1 (S1P1) (Homo sapiens (Human))"
test_value = "<75"

[[record]]
smiles_code = "CCC1(CC)CC(=O)c2cc(-c3nc(-c4ccc5[nH]ncc5c4)no3)ccc2O1"
system = "human sphingosine-1-phosphate receptor 1 (S1P1) (Homo sapiens (Human))"
test_value = ">75"

[[record]]
smiles_code = "COc1ccc(-c2noc(-c3ccc4c(c3)nnn4CC(C)(C)O)n2)c(C)c1"
system = "human sphingosine-1-phosphate receptor 1 (S1P1) (Homo sapiens (Human))"
test_value = "<75"


Shift focus to the following entry.
Entry under review: CCC1(CC)CC(=O)c2cc(-c3nc(-c4ccc(C(=O)N(C)C)cc4)no3)ccc2O1 . Reported hS1P1 B-arrestin2 SPAN?
>75
